- System: Plasmodium falciparum
- Test description: GSK_TCMDC: Inhibition of Plasmodium falciparum 3D7 in whole red blood cells, using parasite LDH activity as an index of growth. Test compounds present at 2uM
- Assay type: functional
molecules and their reported Inhibition
Write down the numeric answer in % and omit the unit.

// below: answered molecules
1. CCOc1cc(C(=O)Nc2cccnc2)cc(Br)c1OCCC(C)C : 88
2. C=CCOC(=O)N1CCC(CNCc2ccc(-c3cccc(-c4nc5cccc(C)c5[nH]4)c3)cc2)C1.O=C(O)C(F)(F)F (centres undefined) : 100
3. COc1cc2nc(N3CCC(CNC(=O)c4ccc(C(C)=O)cc4)CC3)nc(N)c2cc1OC.O=C(O)C(F)(F)F : 96

Challenge: What is its Inhibition for Plasmodium falciparum? Entry: `CCC(C)(C)c1ccc(S(=O)(=O)Nc2ccc(Cl)c(OCCN3CCCCC3)c2)cc1`
Response given: 88

Challenge: Give Plasmodium falciparum Inhibition for `CC(C)c1cn2c3c(cc(C(=O)N[C@@H](Cc4ccccc4)[C@H](O)CNC4CCOCC4)cc13)N(C)S(=O)(=O)CC2.O=CO`
Response given: 98

Challenge: What value of Inhibition on Plasmodium falciparum does `O=C(O)C(F)(F)F.OCC1CCN(Cc2cccc(-c3cccc(-c4nc5cc(C(F)(F)F)ccc5[nH]4)c3)c2)CC1` have?
Response given: 100

Challenge: What value of Inhibition on Plasmodium falciparum does `Cc1cc(N2CCCC2)nc(Nc2ccc(NC(=O)Nc3ccccc3)cc2)n1` have?
Response given: 99

Challenge: Could you share what Inhibition was measured for `O=C(CCc1c[nH]cn1)Nc1cccc(-c2ccc(-c3nc4cc(F)ccc4[nH]3)cc2)c1` , tested on Plasmodium falciparum?
Response given: 100

Challenge: Lab note: need Inhibition with Plasmodium falciparum for entry `O=C(CSc1ccccn1)Nc1c(F)cccc1F` , please look it up.
Response given: 88

---

Catalogue of compounds with associated Inhibition
- Tested on: Plasmodium falciparum
- Test description: GSK_TCMDC: Inhibition of Plasmodium falciparum 3D7 in whole red blood cells, using parasite LDH activity as an index of growth. Test compounds present at 2uM
- Assay type: functional
Express your answer in %, writing the number without its unit.

Challenge: Returns the measured Inhibition for the input compound. Input: Cc1cccc2nc(-c3ccc(-c4ccc(CN5CCCC(N)C5)cc4)s3)[nH]c12.O=C(O)C(F)(F)F (stereo unspecified)
Response given: 100

Challenge: Entry `COc1cc(Nc2ncc3c(C)nc(-c4cc5ccccc5[nH]4)n3n2)cc(OC)c1OC` : reported Inhibition = ?
Response given: 91

---

Entries and their Inhibition values follow.
- Tested on: Plasmodium falciparum
- Test description: GSK_TCMDC: Inhibition of Plasmodium falciparum Dd2 in whole red blood cells, using parasite LDH activity as an index of growth. Test compounds present at 2uM
- Type: functional
# unit: % | format: bare number

1) COc1cc(Cc2cnc(N)nc2N)cc(OCCCCC2NC(=O)NC2=O)c1OC (stereo not drawn) : 0
2) Cc1cc(N(C)C)nc(Nc2ccc(NC(=O)C3CCCCC3)cc2)n1 : 68
3) CN(Cc1cccc(F)c1)C1CCN(c2cc(NC(=O)c3ccc(F)cc3)ccn2)CC1.O=C(O)C(F)(F)F : 36
4) Cc1ccc(C2CCN(CCCCNC(=O)c3ccc(NC(=O)c4ccc(Cl)cc4)cc3)CC2)c(C)c1.Cl : 10

Challenge: Which measured Inhibition value corresponds to `Cc1cc(N[C@@H](Cc2ccccc2)C(=O)NCc2cccc(F)c2)nc(NCCc2cccs2)n1.O=C(O)C(F)(F)F` ?
Response given: 22

Challenge: Param item = CC1=C(C(=O)Nc2ccc(Cl)cc2)C(c2ccncc2)n2nc(C(F)(F)F)nc2N1 (stereo not drawn) ; retrieve measured Inhibition.
Response given: 49

Challenge: Can you share its Inhibition? I mean this molecule: `Cc1cc(N[C@@H](CC(C)C)C(=O)NCCOc2ccccc2)nc(NCCc2ccc(F)cc2)n1.O=C(O)C(F)(F)F`
Response given: 54

The measurements presented in this section are drawn from ChEMBL document CHEMBL1157539.
